Overview of reported log10(AC50) across a group of molecules:
# Test system: human bronchial epithelial cells, CFTR corrector, plate reader
# Assay: rescue of ΔF508 CFTR function, airway epithelium – human bronchial epithelial cells, plate reader, cherry-pick, two tests, dose response (AID 743267)
# Condition info: measured here: test 2 replicate run
Reported property: log10(AC50) (log10 of the value in µM)

Molecule: CCN(CC)CCCNc1nc2ccccc2c2nc(-c3ccncc3)nn12
Reported property: log10(AC50)
Observed measurement: 0.80

Molecule: COc1ccc(/C=C2\SC(=O)N(CCNC(=O)C3=COCCO3)C2=O)cc1
Reported property: log10(AC50)
Observed measurement: 0.26

Molecule: O=C(NCCC1CCCCN1S(=O)(=O)c1cccs1)C(=O)Nc1ccc(F)cc1F (stereo unspecified)
Reported property: log10(AC50)
Observed measurement: 0.92

Molecule: CCc1ccc(-c2nc(C(N)=O)c3[nH]c(=O)n(-c4ccccc4OC)c3n2)cc1
Reported property: log10(AC50)
Observed measurement: 0.12

Molecule: CC(C)Nc1ccc(Nc2ccnc3cc4ccccc4cc23)cc1
Reported property: log10(AC50)
Observed measurement: 0.87

Molecule: O=[N+]([O-])c1ccc(N2CCOCC2)c2c1no[n+]2[O-]
Reported property: log10(AC50)
Observed measurement: 0.44

Molecule: CN1/C(=C\C=C2/SC(=S)NC2=O)C(C)(C)c2ccccc21
Reported property: log10(AC50)
Observed measurement: 1.27

Molecule: CC(=O)OCCn1c2nc(=O)[nH]c(=O)c-2nc2cc(C)c(C)cc21
Reported property: log10(AC50)
Observed measurement: 1.18

Molecule: CC(=NNC(=S)Nc1ccc(C)cc1)c1ccccn1
Reported property: log10(AC50)
Observed measurement: -0.30

Molecule: CCN(CC)c1ccc2c(cc1=O)[C@@H](NC)CCc1cc(OC)c(OC)c(OC)c1-2
Reported property: log10(AC50)
Observed measurement: 0.12

====

Let's look at some compounds and their measured AC50.
# System: human bronchial epithelial cells, CFTR corrector, plate reader
# Assay: rescue of ΔF508 CFTR function, airway epithelium – human bronchial epithelial cells, plate reader, cherry-pick, two tests, dose response (AID 743267)
# Condition info: measured here: test 2 replicate run
Reported property: AC50 (µM)

Compound: COc1cc2c(cc1OC)C(C)N(C(=O)Nc1cc(C)cc(C)c1)CC2 (stereo not given)
Experimental target: human bronchial epithelial cells, CFTR corrector, plate reader
Observed measurement: 3.03
//
Compound: CCOC(=O)c1cc2c(=Cc3ccc(N(C)C)cc3)c3ccccc3n2[n+]1C
Experimental target: human bronchial epithelial cells, CFTR corrector, plate reader
Observed measurement: 5.09
//
Compound: Cn1cccc1/C=C1\SC(=Nc2ccc(O)cc2)NC1=O
Experimental target: human bronchial epithelial cells, CFTR corrector, plate reader
Observed measurement: 0.315
//
Compound: COC(=O)c1ccc(C(=O)NC2CCCc3c2cnn3-c2cc(F)cc(F)c2)nc1 (stereo not given)
Experimental target: human bronchial epithelial cells, CFTR corrector, plate reader
Observed measurement: 8.13
//
Compound: O=S(=O)(Cc1ccc(Cl)cc1Cl)c1ccc(Cl)cc1
Experimental target: human bronchial epithelial cells, CFTR corrector, plate reader
Observed measurement: 2.72
//
Compound: COC(=O)c1[nH]c2c(c1C)C(=O)CC(c1cccc(OC)c1)C2 (stereo not given)
Experimental target: human bronchial epithelial cells, CFTR corrector, plate reader
Observed measurement: 0.965
//
Compound: Cn1c(=O)c(NC2CCCCC2)c2c3c(cccc31)C(=O)c1ccccc1-2
Experimental target: human bronchial epithelial cells, CFTR corrector, plate reader
Observed measurement: 8.48
//
Compound: CCCCn1c(CN2CCN(c3cccc(Cl)c3)CC2)nc2c1c(=O)[nH]c(=O)n2C
Experimental target: human bronchial epithelial cells, CFTR corrector, plate reader
Observed measurement: 4.31
//
Compound: CC1(C(=O)NCc2cccs2)Cc2c(-c3ccc4c(c3)OCO4)ccnc2O1 (stereo not given)
Experimental target: human bronchial epithelial cells, CFTR corrector, plate reader
Observed measurement: 2.69
//
Compound: O=C(N/N=C/c1cc(Br)cc(Cl)c1O)c1ccc2c(c1)OCO2
Experimental target: human bronchial epithelial cells, CFTR corrector, plate reader
Observed measurement: 9.98
